assay-notes: Cytotoxicity against human BGC823 cells by MTT assay
Assay type: functional, cell-based
condition-label: BGC-823
Exercise: for every item that follows, state its recorded IC50.
Give bare numbers, in µM.

In the examples that follow, each entry is paired with its recorded IC50.
O=C(Nc1ccc2c(/C=N/c3cccnc3)n[nH]c2c1)Nc1nncs1 : 67.2
CC1CC(=O)NN=C1c1ccc(NC(=O)Nc2ccc3c(/C=N/c4nccs4)n[nH]c3c2)cc1 (centres undefined) : 78

Next compound, please.
Lookup: Entry O=C(Nc1ccc2c(/C=N/c3ncccn3)n[nH]c2c1)Nc1nccs1 has what IC50?
Found: 12.8

* * *

assay-notes: Cytotoxicity against human PC3 cells by MTT assay
Assay type: functional, cell-based
condition-label: PC-3
For each of the compounds below, state its IC50.
Numbers only, in µM.

CC1CC(=O)NN=C1c1ccc(NC(=O)Nc2ccc3c(/C=N/c4nccs4)n[nH]c3c2)cc1 (stereo not given) : 5.6
O=C(Nc1ccc2c(/C=N/c3ncccn3)n[nH]c2c1)Nc1nccs1 : 6.8
O=C(Nc1ccc2c(/C=N/c3cccnc3)n[nH]c2c1)Nc1nncs1 : 7.8

As a next step, examine the compound that follows.
Lookup: What value of IC50 has been reported for the following compound? CCN(CC)CCNC(=O)c1c(C)[nH]c(/C=C2\C(=O)Nc3ccc(F)cc32)c1C [SUNITINIB]
Found: 55.6

* * *

Tested on: HT-29
assay-notes: Cytotoxicity against human HT-29 cells by MTT assay
Assay type: functional, cell-based
measurement-type: log10(IC50) (log10 of the value in µM)
Values below are the log10 of the recorded IC50, with µM as the unit.

O=C(Nc1ccc2c(/C=N/c3ccccn3)n[nH]c2c1)Nc1nncs1 : 0.97
O=C(Nc1ccc2c(/C=N/c3ncccn3)n[nH]c2c1)Nc1nccs1 : 1.90
O=C(Nc1ccc2c(/C=N/c3cccnc3)n[nH]c2c1)Nc1nncs1 : 1.08
CCN(CC)CCNC(=O)c1c(C)[nH]c(/C=C2\C(=O)Nc3ccc(F)cc32)c1C [SUNITINIB] : 0.23

Lookup: Give the measured log10(IC50) of CC1CC(=O)NN=C1c1ccc(NC(=O)Nc2ccc3c(/C=N/c4nccs4)n[nH]c3c2)cc1 (stereo not given) .
Found: 1.11
